# study-target: human Tissue Factor (TF) (human, UniProt P13726 33-295)
# experimental-details: cell-based or functional assay
// reported % GM-CSF at 6.4 nM antibody for each item listed

Previously resolved entries follow.
Challenge: Value lookup for % GM-CSF at 6.4 nM antibody; key = 43B7 (antibody, human IgG1, V domains shown) VH: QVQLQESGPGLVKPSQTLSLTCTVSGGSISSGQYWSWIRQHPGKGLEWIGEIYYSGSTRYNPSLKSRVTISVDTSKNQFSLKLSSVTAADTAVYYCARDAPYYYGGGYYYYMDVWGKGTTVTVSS VL: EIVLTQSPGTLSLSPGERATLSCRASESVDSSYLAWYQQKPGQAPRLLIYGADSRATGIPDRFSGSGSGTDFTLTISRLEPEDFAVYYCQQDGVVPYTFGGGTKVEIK
Response given: 17%

Challenge: Next binder: 25A (antibody, human IgG1, V domains shown, Human IgG1; also called antibody designated 25A; Antibody Clone 25A) VH: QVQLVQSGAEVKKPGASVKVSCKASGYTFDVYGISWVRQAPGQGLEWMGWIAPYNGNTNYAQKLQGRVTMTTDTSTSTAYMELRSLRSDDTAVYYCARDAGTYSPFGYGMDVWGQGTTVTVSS VL: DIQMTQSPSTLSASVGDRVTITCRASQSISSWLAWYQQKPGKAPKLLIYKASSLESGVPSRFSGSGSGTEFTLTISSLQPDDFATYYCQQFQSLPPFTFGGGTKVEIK
Response given: 24%

Consider the record given below.
Challenge: // query % GM-CSF at 6.4 nM antibody value for entry 43D (antibody, human IgG1, V domains shown) VH: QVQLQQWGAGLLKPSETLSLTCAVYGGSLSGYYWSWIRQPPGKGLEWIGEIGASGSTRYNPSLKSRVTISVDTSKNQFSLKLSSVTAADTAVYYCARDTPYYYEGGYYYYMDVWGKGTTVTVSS VL: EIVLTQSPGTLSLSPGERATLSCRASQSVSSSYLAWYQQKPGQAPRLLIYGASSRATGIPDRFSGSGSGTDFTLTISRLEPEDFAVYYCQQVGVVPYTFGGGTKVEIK
Response given: 24%

Where do the numbers come from? From patent US20250361322A1.
